Data provenance is ChEMBL document CHEMBL1201862.

# Lookup of reported GI50 keyed by entry
tested on: HL-60; test: NCI tumour cell line growth inhibition, 48 h
Calls of active or inactive are those of the source. Cut-off read from the data, not from the text of the source: active = GI50 up to about 1.1 µM and inactive = higher.

Here are 2 compounds together with their reported answers.
- C[C@@H](NC1CCCC[C@H]1O)c1ccccc1 (some centres not stated): > 100 µM (inactive)
- CC(=O)Nc1ccc2c(c1)[nH]c(=O)c1cc(Cl)ccc12: 21.1 µM (inactive)

Task: Assign GI50 to the following record: OC(c1cc2ccc(C(F)(F)F)cc2c2cc(C(F)(F)F)ccc12)C1CCCCN1 (configuration not stated)
Result: 31.4 µM (inactive)

Task: Provide GI50 value for the following compound: Cc1nnc2n1-c1ccccc1-c1[nH]c3ccccc3c1C2
Result: 21.2 µM (inactive)

Task: Consider the compound CC(=O)CC(=O)ON(C)C(C)=O and give its recorded GI50.
Result: > 100 µM (inactive)

Task: Give reported GI50 value for Fc1ccc(C2SCc3nc4ccccc4n32)cc1F (configuration not stated)
Result: 7.8 µM (inactive)

Task: State its GI50 for this compound: CC(=O)Oc1cccc2c1C(=O)CCCC2
Result: > 100 µM (inactive)

Task: Find the measured GI50 of N#Cc1cccc(NC(=O)c2ccc(C(=O)O)c(C(=O)c3ccc(C(=O)O)c(C(=O)Nc4cccc(C#N)c4)c3)c2)c1 and report it.
Result: > 100 µM (inactive)

====

tested on: UACC-257; experiment: NCI tumour cell line growth inhibition, 48 h
Activity calls are given as the source filed them. Rule as the data show it: active = GI50 up to about 1.1 µM and inactive = higher.
// one of active, inactive, no free text

* O=S(=O)(O)c1cc(/N=N/c2cc(S(=O)(=O)O)c3ccccc3c2O)ccc1/C=C/c1ccc(/N=N/c2cc(S(=O)(=O)O)c3ccccc3c2O)cc1S(=O)(=O)O | inactive
* CC(C)CCCCCCCCCCCCC(=O)NCC(=O)NC1C(C)OC(Nc2[nH]cnc3ncnc2-3)C(O)C1O (stereo not drawn) | active
* COC(=O)[C@@H](NC(=O)N(CCC#N)CCCN(C(=O)N[C@H](Cc1ccccc1)C(=O)OC)c1ccccc1)C(C)C | inactive

Task: Given CC1(C)OC2OC(C(COS(=O)(=O)C(F)(F)F)N=[N+]=[N-])C(OC(=O)c3ccccc3)C2O1 (stereo not drawn) , state the outcome it received in this test.
Result: inactive

Task: Called result for C=C(C(=C)N1N=NC2C3CCC(C3)C21)N1N=NC2C3CCC(C3)C21 (stereo not drawn)
Result: inactive

====

test system: Malme-3M; assay: NCI tumour cell line growth inhibition, 48 h
Calls of active or inactive are those of the source. No stated cut-off is given here; in the data, active = GI50 up to about 1.1 µM and inactive = higher.
Please answer using one outcome listed in t (active), f (inactive)

* COC(=O)[C@@](C)(COC(=O)C(C)(C)C)NC(=O)OC(C)(C)C | f
* CC(=O)Oc1cccc2c1C(=O)CCCC2 | f
* COc1ccccc1C(=O)N(Cc1ccccc1)c1ccc(Cl)c(C(=O)OC(C)C)c1 | f
* CCCCC(=O)Oc1ccc2c(C)cc(=O)oc2c1 | f
* Cc1ccc(-c2cnc(NC3OC(COC(=O)c4ccccc4)C(OC(=O)c4ccccc4)C(OC(=O)c4ccccc4)C3OC(=O)c3ccccc3)s2)cc1 (configuration not stated) | f
* COc1ccc(N2C(=O)/C(=C\c3cccc(Oc4ccccc4)c3)S(=O)(=O)C2c2ccccc2)cc1 (configuration not stated) | f
* COc1cc(/C=C2\[C@H]3c4c(c(OC)c(C)c(OC)c4OC)C[C@@H](C(=O)N2Cc2ccccc2)N3C(=O)OC(C)C)c(OC)c(C)c1OC | f
* Cc1[nH]c2ccccc2c1C1Cc2ccccc2N1C(=O)/C=C/C=C/c1ccccc1 (configuration not stated) | f
* COc1cc2c(/C=C3/C(=O)N(C)c4ccc(O)cc43)c(Cl)[nH]c2cc1C | t
* Cc1c(C)c(C)c(-n2c(=O)n(C)c(=O)n2-n2c(=O)n(C)c(=O)n2-c2c(C)c(C)c(C)c(C)c2C)c(C)c1C | f

Task: Write down the call the test reported for this compound. Item: COC1CC(n2cnc3c(N)ncnc32)OC1CO (configuration not stated)
Result: f

Task: Could you please tell me the result logged for CCOC(=O)/C(=C/c1ccc(C(=O)OC)cc1)N(CC)CC in this assay?
Result: f

Task: Please share the test call associated with C/C(=N\NS(=O)(=O)c1ccccc1)c1ccc(Cl)c(Cl)c1 .
Result: f

Task: Record request — test call for O=c1c(-c2ccccc2)c(SCCN2CCOCC2)n(-c2ccccc2)c(=S)n1-c1ccccc1
Result: f

Task: # outcome recorded in this test, key = Cc1c(N2C(=O)/C(=C/c3ccc(N(CCC#N)CCC#N)cc3)N=C2c2ccccc2)c(=O)n(-c2ccccc2)n1C
Result: f

Task: Each compound tested received a call. Report the one for CN(C)CC[N+]1=Nc2cccc3cccc(c23)N1 .
Result: f

Task: Test call for this compound, please: CC1CCC(C(C)C)C(OC(=O)NCn2cc(-c3ccccc3)nn2)C1 (configuration not stated)
Result: f

Task: Hi, do you know how CCOC(=O)C(=Cc1cc(OC)ccc1OC)C(=O)OCC came out in this test?
Result: f

Task: Assay outcome for C[N+](C)(C)CCN[N+]1(C)CCCc2ccccc21 (configuration not stated) : what was it?
Result: f

Task: Dear all, I need the recorded test outcome for CN(C)CC/[N+]([O-])=C(/c1ccccc1)C12CC3CC(CC(C3)C1)C2 , thank you.
Result: f

Task: Entry COC(=O)C1=COc2c(n(C)c3ccccc23)-c2ccccc21 : call = ?
Result: f

Task: Short answer needed: outcome of this test for O=C(O)/C(=C\c1ccccc1Cl)S(=O)(=O)c1ccccc1 ?
Result: f

Task: Fill in: this test's call for COC(=O)c1cccc(COc2ccc([N+](=O)[O-])cc2Cl)c1 is ___
Result: f

Task: What call does the record list for NCCCN(CCCCN(CCCN)Cc1ccc2ccccc2c1)Cc1ccc2ccccc2c1 ?
Result: f
